Assignment: determine reported T/C for the given compounds.
- System: P388 leukemia ip, CD2F1 mice, survival T/C
- PROCEDURE TEXT: NCI In Vivo Anticancer Drug Screen. Data for tumor model P388 Leukemia (intraperitoneal) in CD2F1 (CDF1) mice
- CONDITION CONTEXT: endpoint: median survival time; dose: 120.0 mg/kg/injection; schedule: Q01DX005 (ip); vehicle: saline; higher = longer survival
Toxic doses and inconclusive results are not listed.

// T/C lookup, key: `COP(=O)(CC(=O)CCCCC1OCCO1)OC`
105 % of control

Which measured T/C value corresponds to COC(=O)C12CC3CC(CC(NC(=O)C(Cc4ccccc4)NC(=O)CN)(C3)C1)C2 (configuration not stated) ?
99 % of control

Please look up its T/C: O=C(O)C1C2OC(C(Cl)C2Cl)C1C(=O)O (configuration not stated)
87 % of control

GET /values?readout=T/C&item= `COc1cccc2c(=O)c(COC(C)=O)c(C)[nH]c12`
112 % of control

# T/C lookup, item `ClC(Cl)C1OCCCO1`
99 % of control

Report T/C for CCOC(C)c1nc2c([nH]1)c(=O)n(C)c(=O)n2C (configuration not stated) please.
101 % of control

Give its T/C value. Item: CC(C)(C)[Si]1(C(C)(C)C)N([Si](C)(C)C)N1[Si](C)(C)C (configuration not stated)
100 % of control

# query: T/C of entry `NNC(=O)CNc1ccccc1F`
97 % of control

Fill blank: measured T/C of the compound `CCOCc1cn[nH]n1` is ____.
100 % of control

Would you kindly share the measured T/C for `O=C1CN=CN1` ?
96 % of control

Query: T/C; subject: `FC(F)(F)SN1CN(SC(F)(F)F)CN(SC(F)(F)F)CN(SC(F)(F)F)CN(SC(F)(F)F)C1`
92 % of control

Quick one: T/C for `CN(C)CCCNc1c2ccccc2nc2c1c(=O)n(C)c(=O)n2C` ?
107 % of control

---

I'd appreciate it if you could supply T/C values for the items below.
- Test system: P388 leukemia ip, CD2F1 mice, survival T/C
- PROCEDURE TEXT: NCI In Vivo Anticancer Drug Screen. Data for tumor model P388 Leukemia (intraperitoneal) in CD2F1 (CDF1) mice
- CONDITION CONTEXT: endpoint: median survival time; dose: 100.0 mg/kg/injection; schedule: Q01DX001 (ip); vehicle: saline with Tween-80; higher = longer survival
- Procedure: The antitumor activity of compounds was measured in mice bearing transplantable tumors. Survival or tumor size were measured and the results are expressed as the measurement made in the treated group (T) divided by the measurement made in the vehicle treated control group (C). The tumor model used in this assay is P388 Leukemia (intraperitoneal) in CD2F1 (CDF1) mice
Inconclusive results and toxic doses are left out.

For CC(C(=O)O)C1(C(=O)O)CCCCCC1 (configuration not stated) , what is its reported T/C?
100 % of control

May I ask what T/C has been recorded for `CS(C)(=O)=Nc1ccc(F)cc1` ?
99 % of control

Bench note: what T/C did CCCCCCCCC1SC1CCCCCCCCOC(=O)CCCCCCCC1SC1CCCCCCCC (configuration not stated) show?
95 % of control

Suppose we examine the molecule C[C@]12CC[C@H](O)CC1CC[C@@H]1C2CC[C@]2(C)NC(=O)CCC12 (some centres not stated) ; what T/C value has been reported?
108 % of control

What value of T/C has been recorded for this entry: CC(O)(CCCCCl)c1nc2ccccc2s1 (configuration not stated)
98 % of control

# input molecule: CC1C(C(=O)c2ccccc2)=CNc2ccccc21 (configuration not stated) ; wanted: its T/C
91 % of control

State the recorded T/C for this entry: `Cc1ccc(S(=O)(=O)N/N=C/c2c(-c3ccc(-c4ccccc4)cc3)nc3n2CCS3)cc1`
100 % of control

Look up T/C for this molecule: `CSc1nnc2nc[nH]n12`
102 % of control

Quick one: T/C of `N#C/C(N)=C(\C#N)N=Cc1ccc(-c2ccccc2)cc1` ?
90 % of control

Bench note: what T/C did `O=C(NCCCCOc1ccc([N+](=O)[O-])cc1Cl)NC1CCCCC1` show?
100 % of control

I would be grateful if you could share the reported T/C for `S=c1[nH]nc2nc3c4ccccc4c4ncccc4c3nn12` .
92 % of control

Please report the recorded T/C for `C/C(=C/Cc1ccccc1)C(=O)O` .
108 % of control
